B1: TPR t1 (parent)
chain: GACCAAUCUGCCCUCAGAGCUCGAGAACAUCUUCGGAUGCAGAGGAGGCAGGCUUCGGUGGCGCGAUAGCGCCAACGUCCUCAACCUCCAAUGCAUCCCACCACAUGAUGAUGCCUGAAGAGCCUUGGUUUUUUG

Variants of: B1
experimentalDetails: polymerase ribozyme fitness, log enrichment relative to wild type (log ratio); higher = more active; in vitro selection for triplet polymerase activity
Where polymerase ribozyme fitness (log ratio) equals or exceeds -3, the correct label is 1.0; where it does not, the label is 0.0.

mutantdesignation="U7G C79U U81C C86U C88A U125A" classlabel=0.0
mutantdesignation="G47C C49U" classlabel=1.0
mutantdesignation="U7G C28G U106A" classlabel=1.0
mutantdesignation="G10C A27G C40U A121U" classlabel=1.0
mutantdesignation="G44A C101U" classlabel=1.0
mutantdesignation="C11A C56A A100C" classlabel=0.0
mutantdesignation="U7G C12G G58A C72U" classlabel=1.0
mutantdesignation="A41C U112A" classlabel=1.0
mutantdesignation="U7A G10C A90U C101A" classlabel=0.0
mutantdesignation="A37G C94G" classlabel=1.0
mutantdesignation="G71A A83U C115U C123G G135U" classlabel=0.0
mutantdesignation="C13G G17A C115U" classlabel=1.0
mutantdesignation="G42U G63A G93U" classlabel=0.0
mutantdesignation="G17U U59C A108G A118U" classlabel=0.0
mutantdesignation="G39A C72A A91U C94A" classlabel=1.0
mutantdesignation="C12G C88U A105U C123A" classlabel=1.0
mutantdesignation="A66U C98U" classlabel=1.0
mutantdesignation="G48U A83U C85U" classlabel=1.0
mutantdesignation="U54C G58A G69C A84U" classlabel=1.0
mutantdesignation="C12A C72U A100U" classlabel=1.0
mutantdesignation="G10U C40A C64U U81C" classlabel=1.0
mutantdesignation="C4U A37G A50C C82A" classlabel=1.0
mutantdesignation="G25A C31G U32G C40U C72U U106C A108U C124A" classlabel=0.0
mutantdesignation="A84G G93C G127U" classlabel=1.0
mutantdesignation="C72A U92A" classlabel=1.0
mutantdesignation="A37G U55A C73U A83C A90U U125A" classlabel=1.0
mutantdesignation="G10U U112G" classlabel=1.0
mutantdesignation="C73U C115G" classlabel=1.0
mutantdesignation="G19A C53U" classlabel=1.0
mutantdesignation="G42U C49U G61A" classlabel=1.0
mutantdesignation="A18U G36U U59C C97G" classlabel=0.0
mutantdesignation="C11G A18U C72A A91U G110C" classlabel=0.0
mutantdesignation="C11A G107A" classlabel=0.0
mutantdesignation="C89A C94A C104U G110A" classlabel=0.0
mutantdesignation="C28U C82A C94A U125G" classlabel=0.0
mutantdesignation="U78C C88U C123G U125A" classlabel=1.0
mutantdesignation="U9G G39A C56U" classlabel=1.0
mutantdesignation="C13A C97A" classlabel=0.0
mutantdesignation="G110A U112C G117A" classlabel=0.0
mutantdesignation="C72G U92G" classlabel=0.0
mutantdesignation="U78A G117C A121C" classlabel=0.0
mutantdesignation="U14G G47A C89G C114G U116C G117A U133A" classlabel=0.0
mutantdesignation="C49A C56U G120C U131G" classlabel=1.0
mutantdesignation="G48U G71A C123A U126A" classlabel=1.0
mutantdesignation="C12U G39A C72G C85U" classlabel=1.0
mutantdesignation="A41U U54C A75G C88A U133A" classlabel=1.0
